Data credit: the METLIN SMRT retention time set (Domingo-Almenara et al. 2019)

EXPERIMENTAL DETAILS: gradient 5% acetonitrile 3 min, to 50% in 2 min, to 85% in 15 min, held 3 min, 100 µL/min
SETUP CONDITIONS: column: Zorbax Extend-C18 2.1 x 50 mm; eluents: water / acetonitrile, 0.1% formic acid
// label = 1.0 if RP-LC retention time is not less than 700 s, otherwise 0.0

- COMPOUND: "N#Cc1ccc(Cn2cc(C(=O)C(N)=O)c3ccccc32)cc1"
  CLASS LABEL: 1.0
- COMPOUND: "CC(C)N1CCC(CCNC(=O)C2CN(C(=O)c3ccncc3)CC23CCCCC3)CC1 (centres undefined)"
  CLASS LABEL: 0.0
- COMPOUND: "CC(C)C(=O)Nc1ccc(-n2cnc(C(=O)NCc3ccccc3)c2)nc1"
  CLASS LABEL: 1.0
- COMPOUND: "Cc1ccccc1CNC(=O)C1CCCN1S(=O)(=O)c1cc2c(cc1C)NC(=O)C(C)O2 (centres undefined)"
  CLASS LABEL: 1.0
- COMPOUND: "Cc1ccc(CNC(=O)N2[C@H]3CC[C@@H]2c2cncnc2C3)cc1"
  CLASS LABEL: 1.0
- COMPOUND: "Cc1nn(C)c(C)c1S(=O)(=O)N1CCO[C@@H](COc2ccccn2)[C@@H]1c1ccccc1"
  CLASS LABEL: 1.0
- COMPOUND: "O=c1c2sccc2n(Cc2nc(-c3ccc(F)cc3)no2)c(=O)n1-c1cccc(F)c1"
  CLASS LABEL: 1.0
- COMPOUND: "O=C(Cc1ccsc1)N1CCC(Nc2ncnc3c2CCC3)C1 (centres undefined)"
  CLASS LABEL: 0.0
- COMPOUND: "Cc1nc(CC(=O)Nc2nc(-c3ccc(C)c(C)c3)cs2)cs1"
  CLASS LABEL: 1.0
- COMPOUND: "CCCN(C)c1ccc2ncc(=O)n(C)c2n1"
  CLASS LABEL: 1.0
- COMPOUND: "CN(C)C(=O)c1ccc2c(c1)N(CC(=O)NCc1ccc(Cl)cc1)C(=O)C1CCCCN21 (centres undefined)"
  CLASS LABEL: 1.0
- COMPOUND: "CC(=O)N1CCc2cc(C)c(S(=O)(=O)N3CCN(C)CC3)cc21"
  CLASS LABEL: 0.0
- COMPOUND: "COc1nc2c(c(C)nn2-c2ccccc2)c(C)c1CCC(=O)NCCc1c[nH]c2ccccc12"
  CLASS LABEL: 1.0
- COMPOUND: "CC(C)(C)c1ccc(-c2noc(Cn3c(=O)n(-c4ccc(Cl)cc4)c(=O)c4sccc43)n2)cc1"
  CLASS LABEL: 1.0
- COMPOUND: "O=C(CC1CCCC1)N1CCCC1c1nc(C2CCOCC2)no1 (centres undefined)"
  CLASS LABEL: 1.0
- COMPOUND: "CCOc1ccc(S(=O)(=O)N2CCC3(CC2)CN(C)CC3c2nnc(CC)o2)cc1 (centres undefined)"
  CLASS LABEL: 0.0
- COMPOUND: "CC(C)(C)n1nc2c(c1-n1cccc1)CN(C(=O)C1COc3ccccc3O1)C2 (centres undefined)"
  CLASS LABEL: 1.0
- COMPOUND: "CCC(C)(C)C(=O)N1CC(c2nc(-c3ccccc3)no2)C2(CCOCC2)C1 (centres undefined)"
  CLASS LABEL: 0.0
- COMPOUND: "CCCn1cc(CCNC(=O)c2ccc(F)c(F)c2)c2cccnc21"
  CLASS LABEL: 1.0
- COMPOUND: "COC(=O)CNC(=O)C1c2ccccc2C(=O)N(Cc2ccccc2)C12CCCC2 (centres undefined)"
  CLASS LABEL: 1.0
- COMPOUND: "COC(=O)c1c(NCc2ccc(C(F)(F)F)cc2)c2cc(F)ccc2[nH]c1=O"
  CLASS LABEL: 1.0
- COMPOUND: "Cc1cc(N2CCCCC2)nc(N2CCN(C(=O)C3CCCCC3)CC2)n1"
  CLASS LABEL: 1.0
- COMPOUND: "O=C(O)CCC1CCN(S(=O)(=O)c2cccc(F)c2)CC1"
  CLASS LABEL: 1.0
- COMPOUND: "COCCN1C(=O)c2ccccc2C(C(=O)NCc2ccccc2)C1c1cccs1 (centres undefined)"
  CLASS LABEL: 1.0
- COMPOUND: "COc1ccc(OC)c(NC(=O)Cn2c(=O)c(CCC(=O)NCC(C)C)nc3ccccc32)c1"
  CLASS LABEL: 1.0
- COMPOUND: "CCC1CCCCN1C(=O)c1cnc2nc(C)ccc2c1Nc1ccccc1OC (centres undefined)"
  CLASS LABEL: 0.0
- COMPOUND: "Cc1cc(C)n(CCNC(=O)c2ccc3nsnc3c2)n1"
  CLASS LABEL: 0.0
- COMPOUND: "O=C(Nc1ccc(C(F)(F)F)cc1)C1CCCN(S(=O)(=O)c2c[nH]c(C(=O)N3CCCC3)c2)C1 (centres undefined)"
  CLASS LABEL: 1.0
- COMPOUND: "CCN1C(=O)NC(c2ccc(Cl)cc2)C2=C1CN(CCC(=O)NCCOC)C2=O (centres undefined)"
  CLASS LABEL: 0.0
- COMPOUND: "O=C1NCCCCCCN(C(=O)Nc2ccc3c(c2)OCCO3)[C@H]2CCC[C@@H]12"
  CLASS LABEL: 1.0
- COMPOUND: "CN1C(=O)c2cccn2CC1C(=O)NCC1CCCCC1 (centres undefined)"
  CLASS LABEL: 1.0
- COMPOUND: "COc1ccccc1OCC(=O)N(Cc1ccc(N(C)C)cc1)C1CCS(=O)(=O)C1 (centres undefined)"
  CLASS LABEL: 0.0
- COMPOUND: "CC1CCCN(CCNC(=O)C2CCc3nc(N4CCOCC4)ncc3C2)C1 (centres undefined)"
  CLASS LABEL: 0.0
- COMPOUND: "O=C(c1ccc2[nH]ccc2c1)N1CCN(c2cc(-c3ccc(Cl)cc3)[nH]n2)CC1"
  CLASS LABEL: 1.0
- COMPOUND: "O=C([C@@H]1C[C@H](Oc2cccnc2)CN1C(=O)C1CC=CC1)N1CCCC1"
  CLASS LABEL: 0.0
- COMPOUND: "Cc1c(S(=O)(=O)N2CCCC(C)C2)c(C)n(C)c1C(=O)N1CCc2ccccc21 (centres undefined)"
  CLASS LABEL: 1.0
